- Tested on: TO-3-N3-2 (biotin conjugate)
- Test protocol: pull-down binding Z-score (relative to library population); higher = stronger binding
- Condition label: RNA library: Library-2
Measured metric: pull-down binding Z-score

INSERT INTO measurements (polymer_sequence, numeric_value) VALUES
  ('GCAGUUAAAAUGUUUGAUGCUUACGUUAAUACGUUUUCAUCAACUUUUAACGU', -0.145),
  ('CUCAAGUCCUCUAUUUCUUUGAA [hsa-mir-7978]', -0.54),
  ('AUGGGGCAGCUGGGAUGGUCCAAAAGGGUGGCCUCA [hsa-mir-1226]', 0.406),
  ('UGAGUGUGACAUACCCAUUGGUGCAGGUAUAUGCGCUAGUUAUCAGACUCA', 0.422),
  ('GCUUGAAGUGGAGC [IAV_invivo_NS1_NEP_8_Motif_14+IAV_invivo_NS1_NEP_8_Motif_14]', -0.23),
  ('UAUAACAAUACUAGAUGGAAUUUCACAGUAUUCACUGAGACUCAUUGAUGCUAUGAUGUUCACAUCUGAUUUGGCUACUAACAAUCUAGUUGUA', -0.178),
  ('GUGAUAGGAUUUAUCAC [hsa-mir-4999]', -0.295),
  ('GCUGGUGCACUUGCCAGU [IAV_invivo_M1_M2_7_Motif_8+IAV_invivo_M1_M2_7_Motif_8]', -0.545),
  ('AGGUAAGUAUGAUACUUACCUG [U1snRNP5ss-2]', -0.581),
  ('UGUGUGUCGCUCCGGGUCCACG [hsa-mir-574]', -0.0762),
  ('UGAUGCAGCCAUGCAACGUAAGUUGGAAAAGAUGGCUGAUCA', -0.36),
  ('AGAAUUACUUAUCUGAGCCAAAGUAAUUCA [hsa-mir-1297]', 0.225),
  ('CCUCGUACAAAAUUUUCAAGAUCGAAAAGGGG [IAV_invivo_NA_6_Motif_10+IAV_invivo_NA_6_Motif_10]', 0.159),
  ('GCAAGCUUCGAUAAUUUUAAGUUUGU [SHAPE_invitro_SARS-CoV-2_Motif_120]', 0.402),
  ('CAGACUUUAUGAGUGUCUCUAUAGAAAUAGAGAUGUUGACACAGACUUUGUGAAUGAGUUUUACGCAUAUUUGCGUAAACAUUUCUCAAUGAUGAUACUCUCUG', -0.449),
  ('AGUUUGUGAUAAUGUUUGUCUAUAUAGUUAUGAAUG [hsa-mir-4307]', -0.174),
  ('GAACUAACUAACCAGAACUAUUUUGUUC [hsa-mir-4652]', 0.0681),
  ('UCCUGAGACAGGA [hsa-mir-4261]', -0.5),
  ('UGAUUUUUGUGGAAAGGGCUAUCAUCUUAUGUCCUUCCCUCAGUCA [SHAPE_invivo_SARS-CoV-2_Motif_462]', -0.0472);

###

- Tested on: TO-3-N3-2 (biotin conjugate)
- Test protocol: pull-down binding Z-score (relative to library population); higher = stronger binding
- Condition label: RNA library: Library-2
Measured metric: pull-down binding Z-score

INSERT INTO measurements (polymer_sequence, assayed_target, numeric_value) VALUES
  ('GUCUGGGAUCAACGAGUCAGCGGAC [IAV_invivo_PB1_2_Motif_28+IAV_invivo_PB1_2_Motif_28]', 'TO-3-N3-2 (biotin conjugate)', -0.51),
  ('CCCCAAAAGAAAUUAUCUUCUUAGAGGG', 'TO-3-N3-2 (biotin conjugate)', -0.623),
  ('UGUUGUAACAACA', 'TO-3-N3-2 (biotin conjugate)', -0.596),
  ('UCUGUUUGGAACUUUAAUUUUAGCCAUGGCAGA', 'TO-3-N3-2 (biotin conjugate)', -0.0381),
  ('GUGGCACUGAGAAUUUGACUAAAGAAGGUGCCAC', 'TO-3-N3-2 (biotin conjugate)', 0.147),
  ('GCUAGUGCUGGCUCAAUGCAAUGC [hsa-mir-502]', 'TO-3-N3-2 (biotin conjugate)', -0.0546);

###

Collected pull-down binding Z-score values appear next to each entry.
- System: TO-3-N3 (biotin conjugate)
- Test protocol: pull-down binding Z-score (relative to library population); higher = stronger binding
- Condition label: RNA library: Library-2
Measured metric: pull-down binding Z-score

INSERT INTO measurements (polymer_sequence, numeric_value) VALUES
  ('GCCCCAGGGCAGGGGC [hsa-mir-4515]', -0.247),
  ('GUGUAGAGGCGGAGCACAG [hsa-mir-1471]', 0.151),
  ('GUGGCUAAUCAGCUGAUGGUGCCAC [hsa-mir-4715]', -0.0716),
  ('UUUGUAUUGUGGUUCAGUACCAUGCAAA [hsa-mir-6507]', -0.367),
  ('CCCUGAACACAAUGACCAAAGAUGCUGAGAGAGGG [IAV_invivo_PB1_2_Motif_12+IAV_invivo_PB1_2_Motif_12]', -0.218);

###

- Test system: TO-3-N3 (biotin conjugate)
- Test protocol: pull-down binding Z-score (relative to library population); higher = stronger binding
- Condition label: RNA library: Library-2
Measured metric: pull-down binding Z-score

INSERT INTO results (polymer_sequence, numeric_value) VALUES
  ('UAUGAAGGUAAGCAUUUUUGUA [hsa-mir-3935]', -0.615),
  ('GGGACGUGUGAUGCUGUGCUUCCU [hsa-mir-3689f]', -0.469),
  ('GGAAGACACAUGAGCAGUGCCUCCACUUCACGCCUCUCCC [hsa-mir-6780b]', 0.265),
  ('GUCCUAAAGUGAAGUAUUUAUACUUUAUUAAAGGAU [SHAPE_invivo_SARS-CoV-2_Motif_244]', -0.854),
  ('CCAUGCUGUUUAAGCCUAGCAUAG [hsa-mir-4423]', 0.0223);

###

- System: TO-3-N3-2 (biotin conjugate)
- Test protocol: pull-down binding Z-score (relative to library population); higher = stronger binding
- Condition label: RNA library: Library-2
Measured metric: pull-down binding Z-score

INSERT INTO measurements (polymer_sequence, assayed_target, measured_metric, numeric_value) VALUES
  ('GGAUGGCCAGGGAAGUAUGCCGGGCCUUGGCAUUUC [hsa-mir-7159]', 'TO-3-N3-2 (biotin conjugate)', 'pull-down binding Z-score', 0.175),
  ('UGCUGAUGUCAUCAGUCAUAACUUCUGCG [hsa-mir-6854]', 'TO-3-N3-2 (biotin conjugate)', 'pull-down binding Z-score', 0.131),
  ('UGGGUAGGAAUAUCCUGGAUCCCCU [hsa-mir-3189]', 'TO-3-N3-2 (biotin conjugate)', 'pull-down binding Z-score', 0.312),
  ('AGCAGUACCAGACGGUUCUGUGG [hsa-mir-3198-1]', 'TO-3-N3-2 (biotin conjugate)', 'pull-down binding Z-score', -0.0913),
  ('GAAGGAAGGCAAGGCUGUCUGUCCAUC [hsa-mir-4800]', 'TO-3-N3-2 (biotin conjugate)', 'pull-down binding Z-score', 0.513),
  ('UGACAUUACACCAUGUUCUUUUGGUGGUGUCA', 'TO-3-N3-2 (biotin conjugate)', 'pull-down binding Z-score', -0.423);

###

- Test system: TO-N3 (biotin conjugate)
- Test protocol: pull-down binding Z-score (relative to library population); higher = stronger binding
- Condition label: RNA library: Library-2
Collected pull-down binding Z-score values appear next to each entry.
Measured metric: pull-down binding Z-score

INSERT INTO assay_data (polymer_sequence, assayed_target, measured_metric, numeric_value) VALUES
  ('CCAUUUGCUAUGCAAAUGG', 'TO-N3 (biotin conjugate)', 'pull-down binding Z-score', -1.05),
  ('UCUCAAUCCAUUCAUAUUGAAA [hsa-mir-3662]', 'TO-N3 (biotin conjugate)', 'pull-down binding Z-score', 0.226),
  ('CCCAAUCAUGAAGGG [IAV_invivo_PB1_2_Motif_24+IAV_invivo_PB1_2_Motif_24]', 'TO-N3 (biotin conjugate)', 'pull-down binding Z-score', -0.488),
  ('GGUACAUUUACUUGUGCU [SHAPE_invivo_SARS-CoV-2_Motif_118]', 'TO-N3 (biotin conjugate)', 'pull-down binding Z-score', 0.678),
  ('GUUGGAUGGUCUAAUUGUGAAGCUCCUAAC [hsa-mir-141]', 'TO-N3 (biotin conjugate)', 'pull-down binding Z-score', -0.138),
  ('GGAGACACUUUUACUAUAUAUAGUGGCUCC [hsa-mir-3156-1]', 'TO-N3 (biotin conjugate)', 'pull-down binding Z-score', -1.5),
  ('CUGAGGAAUUUGCUGGGAUAUGUCAG [hsa-mir-584]', 'TO-N3 (biotin conjugate)', 'pull-down binding Z-score', 0.66),
  ('AACUCCUGCGAGUCCCUGGAGUU [hsa-mir-1258]', 'TO-N3 (biotin conjugate)', 'pull-down binding Z-score', -0.0874),
  ('UGGAUUUGAAAUGGUCCCACUCCUGACGAUCCU [hsa-mir-6748]', 'TO-N3 (biotin conjugate)', 'pull-down binding Z-score', -0.0778),
  ('CAGGUGUUCUUAAAAUCACCUG [hsa-mir-875]', 'TO-N3 (biotin conjugate)', 'pull-down binding Z-score', -0.806),
  ('UCGCCUAGGGCUCUGAGCAGGGCA [hsa-mir-211]', 'TO-N3 (biotin conjugate)', 'pull-down binding Z-score', 1.72),
  ('CAUGAGCAGUGCUGACUCAACUCAGGCCUAAACUCAUG', 'TO-N3 (biotin conjugate)', 'pull-down binding Z-score', 0.27),
  ('CUUUCUGUUGUCUAAAAGAAAAGAACG [hsa-mir-521-1]', 'TO-N3 (biotin conjugate)', 'pull-down binding Z-score', -0.124),
  ('AUCUAUUCCAGAAGAU [hsa-mir-4696]', 'TO-N3 (biotin conjugate)', 'pull-down binding Z-score', -1.28),
  ('AAGAAAGUUGAUGGUGUUGUCCAACAAUUACCUGAAACUUACUU [DMSMaPseq_invitro_SARS-CoV-2_Motif_358]', 'TO-N3 (biotin conjugate)', 'pull-down binding Z-score', -1.34),
  ('CAGAGAUGAAAUUGGGACUCCUCU [hsa-mir-7157]', 'TO-N3 (biotin conjugate)', 'pull-down binding Z-score', 0.499),
  ('CCGCCUUUGUGCUGUCCUUGGAGGGAGG [hsa-mir-1910]', 'TO-N3 (biotin conjugate)', 'pull-down binding Z-score', 0.226),
  ('UUUCUGUUGUCUGAAAGCAGA [hsa-mir-515-1_515-2]', 'TO-N3 (biotin conjugate)', 'pull-down binding Z-score', 0.262),
  ('UUGUGUAUGUACUUAGCUGUACUAUA [hsa-mir-1244-1_1244-4_1244-2_1244-3]', 'TO-N3 (biotin conjugate)', 'pull-down binding Z-score', -0.627),
  ('GGCAGCGAGCC [IAV_invivo_NP_5_Motif_25+IAV_invivo_NP_5_Motif_25]', 'TO-N3 (biotin conjugate)', 'pull-down binding Z-score', -1.01),
  ('UGGAGGCUGACCUCUUACUUUCGGUCGGUCUUCUU [hsa-mir-4258]', 'TO-N3 (biotin conjugate)', 'pull-down binding Z-score', -0.486),
  ('GGUGUCAUGCCCCAAGAUAACC [hsa-mir-634]', 'TO-N3 (biotin conjugate)', 'pull-down binding Z-score', -0.387);
